System tested: non-canonical CBRs expressed in PC-3
Assay details: Homologous receptor binding, PC-3
Measurement conditions: homologous competition with [^3H]WIN-55,212-2 (1 nM), read-out: affinity (KD)
Property measured: Kd (nM)
Hi! Could you send only the number? It should be in nM, unit omitted.

What Kd appears in the records for this compound with non-canonical CBRs expressed in PC-3? Cc1c(C(=O)c2cccc3ccccc23)c2cccc3c2n1[C@H](CN1CCOCC1)CO3 [WIN-55,212-2] 8.4

---

System: CBRs expressed in DU-145 membranes
Type: binding, human
Property measured: displacement of [^3H]WIN-55,212-2

O=C(Oc1cccc2ccccc12)c1cn(Cc2ccc(F)cc2)c2ccccc12
failed to displace
CC(C)[C@H](NC(=O)c1nn(CCCCCF)c2ccccc12)C(N)=O
failed to displace
CCCCCCCC/C=C\CCCCCCCC(=O)N[C@H](C(=O)O)C(C)C
15 ± 2.7%
CCCCCc1cc(O)c2c(c1)OC(C)(C)[C@@H]1CCC(C)=C[C@@H]21 [THC, Δ^9-tetrahydrocannabinol]
failed to displace

I have this compound here, COc1ccc(C(=O)c2c(C)n(CCN3CCOCC3)c3cc(I)ccc23)cc1 , and I need its recorded displacement of [^3H]WIN-55,212-2. failed to displace

Name the reported displacement of [^3H]WIN-55,212-2 value associated with the compound Cc1c(C(=O)Nc2cccc(C(F)(F)F)c2)cc(-c2ccccc2)n1CCCN1CCOCC1 22 ± 3.8%

I am curious: what displacement of [^3H]WIN-55,212-2 value has been reported for CCCCC/C=C\C/C=C\C/C=C\C/C=C\CCCC(=O)NCCCl ? failed to displace

meta.source: paper PMC8954350
